Test: self-splicing fitness, log relative to wild type (ln ratio); higher = more splicing; Tetrahymena group I intron in knt gene, E. coli kanamycin selection, DiMSum; sequences stand for … in CUCUCU…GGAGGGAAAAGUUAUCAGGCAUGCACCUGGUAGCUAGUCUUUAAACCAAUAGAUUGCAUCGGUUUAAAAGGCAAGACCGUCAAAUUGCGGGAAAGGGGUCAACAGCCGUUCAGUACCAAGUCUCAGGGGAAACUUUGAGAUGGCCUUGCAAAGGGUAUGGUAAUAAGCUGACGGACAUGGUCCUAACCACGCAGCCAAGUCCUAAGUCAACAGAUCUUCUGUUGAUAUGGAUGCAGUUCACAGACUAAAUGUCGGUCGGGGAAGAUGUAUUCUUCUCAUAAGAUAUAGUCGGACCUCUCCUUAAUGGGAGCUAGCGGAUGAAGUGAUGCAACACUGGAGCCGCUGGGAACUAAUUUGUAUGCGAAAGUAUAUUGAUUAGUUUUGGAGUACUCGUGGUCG;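 further: selection with 25 µg/mL kanamycin versus none on LB agar overnight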
Settings: 30 °C
Threshold rule: self-splicing fitness (ln) greater than or equal to -2 is Met; below that, Not met.

IN: Assess whether reported self-splicing fitness (ln) for CAGGAGCAAUAUUACGCUUG sits at -2 or higher.
OUT: Not met

IN: Assess whether reported self-splicing fitness (ln) for GAGAAGCAAUAUUACGAGCC sits at -2 or higher.
OUT: Met

IN: Assess whether reported self-splicing fitness (ln) for CCGUAGCAAUAUUACGGAGG sits at -2 or higher.
OUT: Not met

IN: Assess whether reported self-splicing fitness (ln) for UGUAAGCAAUAUUACGGUCC sits at -2 or higher.
OUT: Not met

IN: Assess whether reported self-splicing fitness (ln) for AGGCAGCAAUAUUACGCGAU sits at -2 or higher.
OUT: Not met

IN: Assess whether reported self-splicing fitness (ln) for GUUGAGCAAUAUUACGGUGG sits at -2 or higher.
OUT: Not met

IN: Assess whether reported self-splicing fitness (ln) for GCUAAGCAAUAUUACGCGCA sits at -2 or higher.
OUT: Met

IN: Assess whether reported self-splicing fitness (ln) for CCUAAGCAAUAUUACGAUUA sits at -2 or higher.
OUT: Not met

IN: Assess whether reported self-splicing fitness (ln) for CGGUAGCAAUAUUACGCGAU sits at -2 or higher.
OUT: Not met

IN: Assess whether reported self-splicing fitness (ln) for AACUAGCAAUAUUACGCGAC sits at -2 or higher.
OUT: Not met

IN: Assess whether reported self-splicing fitness (ln) for ACUAAGCAAUAUUACGUUGG sits at -2 or higher.
OUT: Not met

IN: Assess whether reported self-splicing fitness (ln) for AAUAAGCAAUAUUACGAUUC sits at -2 or higher.
OUT: Not met

IN: Assess whether reported self-splicing fitness (ln) for GUUUAGCAAUAUUACGUAAU sits at -2 or higher.
OUT: Met

IN: Assess whether reported self-splicing fitness (ln) for GGAUAGCAAUAUUACGCCGU sits at -2 or higher.
OUT: Met

IN: Assess whether reported self-splicing fitness (ln) for CGCCAGCAAUAUUACGCGAG sits at -2 or higher.
OUT: Not met

IN: Assess whether reported self-splicing fitness (ln) for UAUUAGCAAUAUUACGCAGG sits at -2 or higher.
OUT: Met

IN: Assess whether reported self-splicing fitness (ln) for GUACAGCAAUAUUACGCGGG sits at -2 or higher.
OUT: Met

IN: Assess whether reported self-splicing fitness (ln) for GGGGAGCAAUAUUACGGUCU sits at -2 or higher.
OUT: Not met

IN: Assess whether reported self-splicing fitness (ln) for UGCCAGCAAUAUUACGAGUU sits at -2 or higher.
OUT: Not met

IN: Assess whether reported self-splicing fitness (ln) for UCGAAGCAAUAUUACGACAC sits at -2 or higher.
OUT: Not met

Measured values drawn from the supplement of paper PMC7877785 for this set.
